Data provenance is patent US20260085034A1.

# SUBJECT_OF_TEST: recombinant hGYS1/GN1 protein (Homo sapiens)
# Sequence (P13807 whole entry): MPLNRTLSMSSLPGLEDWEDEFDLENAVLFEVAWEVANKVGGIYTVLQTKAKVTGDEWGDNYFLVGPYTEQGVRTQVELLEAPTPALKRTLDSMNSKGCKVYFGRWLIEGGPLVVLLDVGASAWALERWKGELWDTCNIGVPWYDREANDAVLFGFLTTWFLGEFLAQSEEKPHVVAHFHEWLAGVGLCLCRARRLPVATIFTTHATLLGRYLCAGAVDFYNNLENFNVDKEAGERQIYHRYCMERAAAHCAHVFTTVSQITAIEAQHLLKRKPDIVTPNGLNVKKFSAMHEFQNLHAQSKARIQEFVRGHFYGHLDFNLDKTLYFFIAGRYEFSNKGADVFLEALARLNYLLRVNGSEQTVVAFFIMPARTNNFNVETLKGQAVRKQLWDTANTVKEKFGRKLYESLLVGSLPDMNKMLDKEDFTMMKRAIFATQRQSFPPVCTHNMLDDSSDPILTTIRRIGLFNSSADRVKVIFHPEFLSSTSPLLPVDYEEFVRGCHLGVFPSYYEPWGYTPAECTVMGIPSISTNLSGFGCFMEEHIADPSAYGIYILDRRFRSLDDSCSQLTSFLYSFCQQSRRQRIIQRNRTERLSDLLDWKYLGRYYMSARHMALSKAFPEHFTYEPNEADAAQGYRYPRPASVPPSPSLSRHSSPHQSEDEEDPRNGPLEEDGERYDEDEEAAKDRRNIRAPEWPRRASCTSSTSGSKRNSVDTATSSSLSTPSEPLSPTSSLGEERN
# Sequence (P46976 whole entry partner): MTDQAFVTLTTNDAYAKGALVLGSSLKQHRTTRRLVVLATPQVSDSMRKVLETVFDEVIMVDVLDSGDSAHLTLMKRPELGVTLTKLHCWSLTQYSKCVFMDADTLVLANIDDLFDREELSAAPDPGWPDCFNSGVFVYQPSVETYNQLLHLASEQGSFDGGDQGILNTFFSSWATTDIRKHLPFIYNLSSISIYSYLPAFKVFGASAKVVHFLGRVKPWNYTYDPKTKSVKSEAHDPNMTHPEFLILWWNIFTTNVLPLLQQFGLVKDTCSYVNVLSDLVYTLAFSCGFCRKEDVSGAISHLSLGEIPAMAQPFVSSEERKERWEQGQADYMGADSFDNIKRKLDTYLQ
# ASSAY_TEXT: GYS1 coupled enzyme assay (PK/LDH)
# COND: geometric mean of at least 2 assay runs; NADH absorbance at 340 nm
Quick reference: IC50 of the listed items.
PROPERTY_NAME: IC50 (nM)

[[record]]
smiles_structure = "CC(C)c1ccc([C@@H](NC(=O)C2CC2)c2ccn[nH]2)cc1"
readout_units = "nM"
observed_measurement = 372

[[record]]
smiles_structure = "O=C(N[C@@H](c1ccccc1)c1ccc(C2CC2)cc1)C1CC1"
readout_units = "nM"
observed_measurement = 2060

[[record]]
smiles_structure = "O=C(N[C@@H](c1ccccc1)c1ccc(C2CC2)c(F)n1)[C@H]1C[C@@H]1F"
readout_units = "nM"
observed_measurement = 1140

[[record]]
smiles_structure = "Cc1ccccc1[C@H](NC(=O)[C@@H]1CCC[C@@H]1C(N)=O)c1ccc(C(C)C)cc1"
readout_units = "nM"
observed_measurement = 1390


###

# SUBJECT_OF_TEST: recombinant hGYS1/GN1 protein (Homo sapiens)
# ASSAY_TEXT: GYS1 coupled enzyme assay (PK/LDH)
# COND: geometric mean of at least 2 assay runs; NADH absorbance at 340 nm
pIC50: −log10 of the molar value.
PROPERTY_NAME: pIC50

[[record]]
molecule = "CC(C)c1ccc([C@@H](NC(=O)C2CC2)c2ccccc2)cc1F (single isomer, unassigned) [compound 52]"
property_name = "pIC50"
observed_measurement = 6.23

[[record]]
molecule = "CC(C)c1ccc([C@@H](NC(=O)[C@H]2CCC(F)C2)c2ccccc2)cc1 (stereo partly shown) [compound 34]"
property_name = "pIC50"
observed_measurement = 6.11

[[record]]
molecule = "CC(C)c1ccc([C@@H](NC(=O)C2CC2)c2cccc3[nH]c(=O)oc23)cc1 (single isomer, unassigned) [compound 15]"
property_name = "pIC50"
observed_measurement = 6.05

[[record]]
molecule = "CC(C)c1ccc([C@@H](NC(=O)[C@H]2C[C@@H]2F)c2ccccc2)cc1 [compound 36]"
property_name = "pIC50"
observed_measurement = 6.38


###

# SUBJECT_OF_TEST: recombinant hGYS1/GN1 protein (Homo sapiens)
# ASSAY_TEXT: GYS1 coupled enzyme assay (PK/LDH)
# COND: geometric mean of at least 2 assay runs; NADH absorbance at 340 nm
pIC50: −log10 of the molar value.
# reported pIC50; entries follow
PROPERTY_NAME: pIC50

[[record]]
compound = "CC(C)c1ccc([C@@H](NC(=O)C2CC2)c2ccccc2NC(=O)[C@H]2CCN2)cc1"
subject_of_test = "recombinant hGYS1/GN1 protein (Homo sapiens)"
observed_measurement = 5.75

[[record]]
compound = "CC(C)c1ccc([C@@H](NC(=O)C2CC2)c2ccccc2Cl)cc1 (single isomer, unassigned)"
subject_of_test = "recombinant hGYS1/GN1 protein (Homo sapiens)"
observed_measurement = 5.86

[[record]]
compound = "Cc1ccccc1[C@H](NC(=O)[C@@H]1CCC[C@@H]1C#N)c1ccc(C(C)C)cc1"
subject_of_test = "recombinant hGYS1/GN1 protein (Homo sapiens)"
observed_measurement = 5.94

[[record]]
compound = "CC(C)c1ccc([C@@H](NC(=O)C2CC2)c2ccccc2Nc2ncco2)cc1 (single isomer, unassigned)"
subject_of_test = "recombinant hGYS1/GN1 protein (Homo sapiens)"
observed_measurement = 5.91

